- Test system: perceived sweetness
- PROTOCOL_DESCRIPTION: Tomato taste panel; initial multiple regression of volatiles against perceived sweetness (Table 3)
- Format: in vivo, human
- CONDITION_LABEL: tomato volatiles; multiple regression, contribution to sweetness independent of the measures of sugar
Reported t values for the following molecules.

// known answers, use as guide
INSERT INTO results (molecule, readout_value) VALUES
  ('CC(=O)/C=C/C1=C(C)CCCC1(C)C [β-ionone]', 1.135),
  ('CC1=C(C=O)C(C)(C)CCC1 [beta-cyclocitral]', 1.186),
  ('CCCCC/C=C\CCC=O [cis-4-decenal]', 0.582);

Proceeding to the next molecule to report its t.
Please report the recorded t for C/C=C/C(=O)C1=C(C)C=CCC1(C)C [β-damascenone] .
1.012
